- Target Or Test System: 17-beta-hydroxysteroid dehydrogenase type 1 (Homo sapiens)
- Method: Inhibition of human recombinant 17beta-HSD1 expressed in HEK293 cell lysate assessed as conversion of radiolabeled estrone to estradiol at 20 uM
- Format: cell-free
- Set-up: scale not given: the % may be the effect or the level left
Assign Activity to each entry below.
Could you give the number and then its unit, please?

// Activity lookup, key: O=c1cc(-c2ccccc2)oc2cc(O)ccc12 [7-HYDROXYFLAVONE]
16%

// Activity lookup, key: "O=c1c(-c2ccc(O)cc2)coc2cc(O)cc(O)c12"
17%

// Activity lookup, key: "Cc1cc(-c2ccc(NS(=O)(=O)c3ccccc3)c(C)c2)ccc1NS(=O)(=O)c1ccccc1"
64%

// Activity lookup, key: "O=c1cc(-c2ccccc2)oc2cc(O)cc(O)c12"
34%

// Activity lookup, key: COc1c2c(cc3c1C1Oc4c(ccc(O)c4CC=C(C)C)C1CO3)OC(C)(C)C=C2 (centres undefined)
54%

// Activity lookup, key: COC(C(=O)Nc1ccc(-c2ccc(NC(=O)C(OC)c3ccccc3)c(C)c2)cc1C)c1ccccc1 (centres undefined)
84%

// Activity lookup, key: "O=S(=O)(Nc1ccccc1)c1ccc2c(c1)Cc1cc(S(=O)(=O)Nc3ccccc3)ccc1-2"
75%

// Activity lookup, key: "CCOP(=O)(Nc1ccc2c(c1)Cc1c-2cc(Cl)c(NC(C)=O)c1Cl)OCC"
90%

// Activity lookup, key: O=S1OCC2C(CO1)C1(Cl)C(Cl)=C(Cl)C2(Cl)C1(Cl)Cl (centres undefined) [ENDOSULFAN]
25%

----------
- Target Or Test System: 11-beta-hydroxysteroid dehydrogenase 1 (Homo sapiens, UniProt P28845)
- Sequence (P28845 whole entry, looked up): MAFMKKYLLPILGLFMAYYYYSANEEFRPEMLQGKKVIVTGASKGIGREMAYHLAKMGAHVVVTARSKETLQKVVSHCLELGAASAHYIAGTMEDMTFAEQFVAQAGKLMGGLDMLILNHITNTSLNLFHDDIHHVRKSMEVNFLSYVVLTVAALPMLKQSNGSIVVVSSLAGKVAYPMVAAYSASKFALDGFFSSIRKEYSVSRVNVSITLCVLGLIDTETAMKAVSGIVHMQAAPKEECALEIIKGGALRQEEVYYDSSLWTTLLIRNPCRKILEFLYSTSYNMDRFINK
- Method: Inhibition of human recombinant 11beta-HSD1 expressed in HEK293 cell lysate assessed as conversion of radiolabeled estrone to estradiol at 20 uM
- Assay type: cell-free
- Parameters: scale not given: the % may be the effect or the level left
Assign Activity to each entry below.
A number alone suffices; assume %.

// Activity lookup, key: "Cc1cc(/C=N/NC(=O)C(O)(c2ccccc2)c2ccccc2)c(C)n1-c1ccc(O)cc1"
90

// Activity lookup, key: CCOc1cc(CNC2C(C)=NN=C2S)cc(Br)c1OCC(=O)NC1CCCCC1 (centres undefined)
16

// Activity lookup, key: "CCOc1cc(/C=N/NC(N)=O)c(Br)c(Br)c1OCC(=O)Nc1ccc(C)cc1"
70

// Activity lookup, key: "CCOP(=O)(Nc1ccc2c(c1)Cc1c-2cc(Cl)c(NC(C)=O)c1Cl)OCC"
87

// Activity lookup, key: C[C@]12CC[C@@H]3c4ccc(OC5CCCCO5)cc4CC[C@H]3[C@@H]1CC[C@@H]2O (some centres undefined)
365

// Activity lookup, key: "O=S(=O)(Nc1ccccc1)c1ccc2c(c1)Cc1cc(S(=O)(=O)Nc3ccccc3)ccc1-2"
56

// Activity lookup, key: "Cc1cc(-c2ccc(NS(=O)(=O)c3ccccc3)c(C)c2)ccc1NS(=O)(=O)c1ccccc1"
101

// Activity lookup, key: "Cc1cc(OCCOc2ccc(N)cc2)ccc1N1C(N)=NC(N)=NC1(C)C"
99

// Activity lookup, key: COc1c2c(cc3c1C1Oc4c(ccc(O)c4CC=C(C)C)C1CO3)OC(C)(C)C=C2 (centres undefined)
96

----------
- Target Or Test System: 17-beta-hydroxysteroid dehydrogenase type 2 (Homo sapiens)
- Method: Inhibition of human recombinant 17beta-HSD2 expressed in HEK293 cell lysate assessed as conversion of radiolabeled estrone to estradiol at 20 uM
- Type: cell-free
- Parameters: scale not given: the % may be the effect or the level left
Assign Activity to each entry below.
A number alone suffices; assume %.

// Activity lookup, key: "CCOc1cc(/C=N/NC(=O)c2ccccn2)c(Br)c(Br)c1O"
55

// Activity lookup, key: "Cc1c(/C=N/N=C2\CC[C@H]3[C@@H]4CCc5cc(O)ccc5[C@H]4CC[C@]23C)cnn1C"
63

// Activity lookup, key: "Cc1cc(OCCOc2ccc(N)cc2)ccc1N1C(N)=NC(N)=NC1(C)C"
59

// Activity lookup, key: CCOc1cc(CNC2C(C)=NN=C2S)cc(Br)c1OCC(=O)NC1CCCCC1 (centres undefined)
105

// Activity lookup, key: "CCCCC(=O)Nc1sc2c(c1C(=O)OCC)CCC(/C=N/O)=C2Cl"
48

// Activity lookup, key: C[C@]12CC[C@@H]3c4ccc(OC5CCCCO5)cc4CC[C@H]3[C@@H]1CC[C@@H]2O (some centres undefined)
90

// Activity lookup, key: "Cc1cc(/C=N/NC(=O)C(O)(c2ccccc2)c2ccccc2)c(C)n1-c1ccc(O)cc1"
113

// Activity lookup, key: "CCOc1cc(/C=N/NC(N)=O)c(Br)c(Br)c1OCC(=O)Nc1ccc(C)cc1"
76

// Activity lookup, key: "Cc1cc(-c2ccc(NS(=O)(=O)c3ccccc3)c(C)c2)ccc1NS(=O)(=O)c1ccccc1"
56

// Activity lookup, key: "CCOP(=O)(Nc1ccc2c(c1)Cc1c-2cc(Cl)c(NC(C)=O)c1Cl)OCC"
79

// Activity lookup, key: "Cc1ccc(S(=O)(=O)N/N=C2\C=C[C@H]3[C@@H]4CC=C5C[C@@H](O)CC[C@]5(C)[C@H]4CC[C@]23C)cc1"
97

// Activity lookup, key: "O=S(=O)(Nc1ccccc1)c1ccc2c(c1)Cc1cc(S(=O)(=O)Nc3ccccc3)ccc1-2"
76

// Activity lookup, key: COC(C(=O)Nc1ccc(-c2ccc(NC(=O)C(OC)c3ccccc3)c(C)c2)cc1C)c1ccccc1 (centres undefined)
59

// Activity lookup, key: COc1c2c(cc3c1C1Oc4c(ccc(O)c4CC=C(C)C)C1CO3)OC(C)(C)C=C2 (centres undefined)
86

----------
- Target Or Test System: UniProt:P37058
- Sequence (whole entry): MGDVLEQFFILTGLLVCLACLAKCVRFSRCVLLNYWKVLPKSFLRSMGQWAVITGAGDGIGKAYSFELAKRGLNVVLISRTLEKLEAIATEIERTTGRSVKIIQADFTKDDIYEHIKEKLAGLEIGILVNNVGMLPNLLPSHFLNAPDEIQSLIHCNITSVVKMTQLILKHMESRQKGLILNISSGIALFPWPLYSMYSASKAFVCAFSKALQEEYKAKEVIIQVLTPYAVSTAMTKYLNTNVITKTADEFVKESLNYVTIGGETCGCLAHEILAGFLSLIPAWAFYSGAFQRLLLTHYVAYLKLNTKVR
- Method: Inhibition of human recombinant 17beta-HSD3 expressed in intact HEK293 cells assessed as conversion of androstenedione to testosterone at 20 uM
- Format: cell-based
- Design: scale not given: the % may be the effect or the level left
Values of Activity strictly less than 90% map to 1 (yes), and values of at least 90% map to 0 (no).

Bench note: check whether "Cc1ccc(S(=O)(=O)N/N=C2\C=C[C@H]3[C@@H]4CC=C5C[C@@H](O)CC[C@]5(C)[C@H]4CC[C@]23C)cc1" shows Activity below 90%
1 (yes)

Bench note: check whether CCOc1cc(CNC2C(C)=NN=C2S)cc(Br)c1OCC(=O)NC1CCCCC1 (centres undefined) shows Activity below 90%
1 (yes)

Bench note: check whether "Cc1cc(/C=N/NC(=O)C(O)(c2ccccc2)c2ccccc2)c(C)n1-c1ccc(O)cc1" shows Activity below 90%
1 (yes)

Bench note: check whether "CCOP(=O)(Nc1ccc2c(c1)Cc1c-2cc(Cl)c(NC(C)=O)c1Cl)OCC" shows Activity below 90%
1 (yes)

Bench note: check whether "Cc1cc(OCCOc2ccc(N)cc2)ccc1N1C(N)=NC(N)=NC1(C)C" shows Activity below 90%
0 (no)

Bench note: check whether "CCOc1cc(/C=N/NC(N)=O)c(Br)c(Br)c1OCC(=O)Nc1ccc(C)cc1" shows Activity below 90%
0 (no)

Bench note: check whether "Cc1c(/C=N/N=C2\CC[C@H]3[C@@H]4CCc5cc(O)ccc5[C@H]4CC[C@]23C)cnn1C" shows Activity below 90%
1 (yes)

----------
- Target Or Test System: 17-beta-hydroxysteroid dehydrogenase type 2 (Homo sapiens, UniProt P37059)
- Sequence (P37059 whole entry): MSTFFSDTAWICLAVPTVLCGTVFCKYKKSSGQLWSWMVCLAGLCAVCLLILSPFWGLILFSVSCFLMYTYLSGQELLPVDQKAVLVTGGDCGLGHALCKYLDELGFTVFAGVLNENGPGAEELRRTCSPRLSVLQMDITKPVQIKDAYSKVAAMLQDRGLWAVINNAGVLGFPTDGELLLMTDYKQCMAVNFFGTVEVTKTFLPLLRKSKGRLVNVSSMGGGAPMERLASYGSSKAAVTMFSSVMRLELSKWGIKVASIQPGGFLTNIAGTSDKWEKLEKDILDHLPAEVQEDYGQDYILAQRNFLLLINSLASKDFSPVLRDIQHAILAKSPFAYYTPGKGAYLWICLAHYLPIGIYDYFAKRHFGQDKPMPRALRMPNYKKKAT
- Method: Inhibition of human recombinant 17beta-HSD2 expressed in HEK293 cell lysate assessed as conversion of radiolabeled estrone to estradiol
Assign pIC50 to each entry below.
As a rule, pIC50 stands for the negative log10 of the concentration, concentration in M.

// pIC50 lookup, key: "COc1ccc(-c2coc3cc(O)cc(O)c3c2=O)cc1"
5.00

// pIC50 lookup, key: "O=c1c(O)c(-c2ccc(O)c(O)c2)oc2cc(O)cc(O)c12"
5.81

// pIC50 lookup, key: "O=c1c(O)c(-c2ccc(O)cc2)oc2cc(O)cc(O)c12"
6.44

// pIC50 lookup, key: "O=C1C[C@@H](c2ccc(O)cc2)Oc2cc(O)cc(O)c21"
4.84

Where do these numbers come from? They come from ChEMBL document CHEMBL1157467.
